Reference for the values: the supplement of paper PMC10307832

System: NCI-H1792
Test: relative viability (nuclei count vs DMSO), 5 days (fraction); higher = more cells survive
Conditions: first compound 0.05 µM

Compound: COc1cc2nccc(Oc3ccc(NC(=O)Nc4cc(C)on4)c(Cl)c3)c2cc1OC [Tivozanib] + O=C(c1cc(Cc2n[nH]c(=O)c3ccccc23)ccc1F)N1CCN(C(=O)C2CC2)CC1 [Olaparib] (partner 8 µM)
Study Target: NCI-H1792
relative viability: 0.516
//
Compound: Nc1ccn([C@@H]2O[C@H](CO)[C@@H](O)[C@@H]2O)c(=O)n1 [Cytarabine] + O=C(c1cc(Cc2n[nH]c(=O)c3ccccc23)ccc1F)N1CCN(C(=O)C2CC2)CC1 [Olaparib] (partner 8 µM)
Study Target: NCI-H1792
relative viability: 0.248
//
Compound: COc1cc2nccc(Oc3ccc(NC(=O)Nc4cc(C)on4)c(Cl)c3)c2cc1OC [Tivozanib] + CC(=O)Nc1cccc(-n2c(=O)n(C3CC3)c(=O)c3c(Nc4ccc(I)cc4F)n(C)c(=O)c(C)c32)c1 [Trametinib] (partner 0.02 µM)
Study Target: NCI-H1792
relative viability: 0.438
//
Compound: COc1cc2nccc(Oc3ccc(NC(=O)Nc4cc(C)on4)c(Cl)c3)c2cc1OC [Tivozanib] + Nc1ncn([C@H]2C[C@H](O)[C@@H](CO)O2)c(=O)n1 [Decitabine] (partner 2 µM)
Study Target: NCI-H1792
relative viability: 0.574
